- Test system: Sonic hedgehog protein (Shh)
- Assay summary: Sonic hedgehog microarray binding compounds – biochemical, small-molecule microarray, 635/667 nm fluorescence, primary screen (AID 1151);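 also: Shh protein binding to compounds spotted on small-molecule microarray slides; score combines spot fluorescence intensity with signal-to-noise across triplicate slides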
- Recorded conditions: 635 nm fluorescence, higher = more signal
# label = class 1 if composite z-score >= 1 else class 0

- CN(C)CCCCNC(=O)[C@H]1C[C@H]2C(=O)N3CCC[C@H]3C(=O)N2[C@H]1c1cccc(OCCO)c1: class 1
- COCCCNC(=O)[C@@H]1c2ccccc2C(=O)N(Cc2ccc(OC(F)(F)F)cc2)[C@H]1c1ccc(CO)cc1: class 1
- [N-]=[N+]=NCc1ccccc1[C@@H]1OC(c2ccc(OCCCO)cc2)=N[C@]1(Cc1ccccc1N=[N+]=[N-])C(=O)O: class 0
- CC(C)C[C@@H]1NC(=O)[C@@H]2C[C@H](C(=O)NCCCCCCNC(=O)CS)[C@H](c3cccc(OCCO)c3)N2C1=O: class 1
- COc1ccc([Si](C)(C)[C@H]2[C@H](CC(=O)N3CCC[C@H]3CO)O[C@@]3(C(=O)N(Cc4ccc(N5CCCCC5=O)cc4)c4ccccc43)[C@@H]2C)cc1: class 1
- CC(C)C(=C=CC[C@H](O)c1ccccc1OCCO)C[C@H](O)c1cc(Cl)cc(Cl)c1O: class 1
- COC(=O)[C@@]1(Cc2ccc(F)cc2)[C@H]2c3cc(C(=O)N(C)C)n(C)c3C[C@H]2CN1C(=O)c1ccccc1: class 0
- NC(=O)N1C(=O)C2C(C1=O)C1C=C(CCCO)C2C(C2CC2)N1Cc1sc2ccccc2c1Cl (centres undefined): class 0
- CCCCN1CC=CC23O[C@@H]4/C=C\CCCOC(=O)C4[C@H]2C(=O)N(C(CO)C(C)C)[C@@H]3C1=O (some centres undefined): class 1
- C=CCOC(=O)[C@H]1[C@@H]2C(=O)O[C@@H](c3ccccc3)[C@@H](c3ccccc3)N2[C@@H](c2ccc(OCCOC(=O)[C@@H]3C[C@@H]4C(=O)N[C@@H](CCCCNC(C)=O)C(=O)N4[C@@H]3c3cccc(OCCO)c3)cc2)[C@]12C(=O)Nc1ccccc12: class 1
- COC(=O)[C@@]1(Cc2ccc(F)cc2)[C@H]2c3cc(C(=O)N4CCCC4)n(Cc4ccccn4)c3C[C@H]2CN1C(=O)c1ccccc1: class 0
- O=C(N1CCOCC1)[C@@]1(Cc2ccccc2)COC(c2ccc(OCCCO)cc2)=N1: class 0
- C=CCC(OC(C)=O)[C@@H]1[C@@H](N(Cc2cc3ccccc3o2)C(=O)c2cccc3ccccc23)c2cc(OCCCO)ccc2N1C(=O)c1ccc2ccccc2n1 (some centres undefined): class 0
- Cc1ccc(S[C@]2(C(=O)NCc3ccccc3)CC(=O)N(Cc3ccccc3C(F)(F)F)[C@@H]2c2ccc(CO)cc2)cc1: class 0

----------
- Assay summary: binders from COS7 lysate, DM2A8 probe, primary screen, torsin A project, cell lysate, small-molecule microarray, fluorescence 635/667 (AID 1065)
- Recorded conditions: higher = more signal, COS7 lysate expressing mutant human TOR1A
The entries below are paired with their reported composite z-score.
Assay metric: composite z-score

- CC(C)C(CO)N1C(=O)[C@@H]2C3C(=O)OCCC/C=C\[C@H]3OC23C=CCN(Cc2ccccc2)C(=O)[C@@H]13 (some centres not stated): -0.217
- NC(=O)NCC#Cc1ccc2c(c1)[C@]1(C(=O)N2)[C@H](c2ccc(OCCO)cc2)N2[C@H](c3ccccc3)[C@H](c3ccccc3)OC(=O)[C@H]2[C@@H]1C(=O)NC[C@H](O)c1ccccc1: -0.329
- COc1ccc([Si](C)(C)[C@H]2[C@H](CC(=O)N3CCC[C@H]3CO)O[C@@]3(C(=O)N(Cc4ccc(N5CCCCC5=O)cc4)c4ccccc43)[C@@H]2C)cc1: 0.227
- NC(=O)N1C(=O)C2C(C1=O)C1C=C(CCCO)C2C(C2CC2)N1Cc1sc2ccccc2c1Cl (configuration not stated): 1.09
- O=C1NC(=O)C2C1C=CC(C(O)c1ccc([N+](=O)[O-])cc1)N2Nc1ccccn1 (configuration not stated): -0.0755
- COc1ccc(NN2C(C(O)c3ccc(I)cc3)C=CC3C(=O)N(C4CCCCC4)C(=O)C32)cc1 (configuration not stated): 0.813
- C=C(/C(=C/C[C@@H](OC(C)=O)c1cccc(OCCO)c1)c1cnc2ccccc2c1)C(C)C: 0.197
